Target: CDK2 (Homo sapiens)
Construct: High-Throughput Measurement of Cellular Endogenous CDK2; endogenous in cells
Test: Inhibition of CDK2: phospho-Rb (S807/811) HTRF measurement in OVCAR3 cells, 24 h
Conditions: 24 h compound treatment, read-out: pRB_OVCAR3_24h
Where a name gives a salt, the structure may show the parent alone.
Provide the recorded IC50 for the entries that follow.

Some compounds with known IC50 results, for comparison:
*Q* Can you look up the measured IC50 of O=C1CCC(N2Cc3cc(N4CCC(N5CC(Oc6cccc(S(=O)(=O)N7CCC(Nc8ncc(C(F)(F)F)cn8)CC7)c6)C5)CC4)ccc3C2=O)C(=O)N1 (stereo not drawn) [Example 92] for me?
*A* 0.1 to 0.5 µM

*Q* Please do the same for O=C1CCC(N2Cc3cc(C4CN(Cc5cccc(S(=O)(=O)N6CCC(Nc7ncc(C(F)(F)F)cn7)CC6)c5)C4)ccc3C2=O)C(=O)N1 (stereo not drawn) as well.
*A* 0.1 to 0.5 µM

*Q* Please do the same for `Cn1nc(N2CCC(=O)NC2=O)c2ccc(N3CC4(CN(Cc5cccc(S(=O)(=O)N6CCC(Nc7ncc(Cl)cn7)CC6)c5)C4)C3)cc21` as well.
*A* 0.5 to 2.5 µM

# map each compound to its IC50
1. Cn1nc(N2CCC(=O)NC2=O)c2ccc(C3CCN(CC4CCN(c5cc(C#N)cc(S(=O)(=O)N6CCC(Nc7ncc(Cl)cn7)CC6)c5)CC4)CC3)cc21 [Example 160, trifluoroacetate]
2. O=C1CCC(N2Cc3cc(N4CCC(CN5CCN(c6cccc(S(=O)(=O)N7CCC(Nc8ncc(C(F)(F)F)cn8)CC7)c6)CC5)CC4)ccc3C2=O)C(=O)N1 (stereo not drawn)
3. O=C1CCN(c2ccc(N3CCN(CC4CCN(c5cccc(S(=O)(=O)N6CCC(Nc7ncc(C(F)(F)F)cn7)CC6)c5)CC4)CC3)cc2)C(=O)N1

*A*
1. 0.1 to 0.5 µM
2. 0.001 to 0.1 µM
3. 0.1 to 0.5 µM

###

Biological target: CDK2 (Homo sapiens)
Construct: High-Throughput Measurement of Cellular Endogenous CDK2; endogenous in cells; host or cells: OVCAR3
Assay: High-throughput HTRF measurement of cellular endogenous CDK2 level (degradation, DC50/Dmax) in OVCAR3 cells, 6 h
Type: cell-based
Settings: 6 h compound treatment, HTRF total CDK2, read-out: DC50_OVCAR3_6h
Assay Metric: DC50

Some compounds with known DC50 results, for comparison:
*Q* Can you look up the measured DC50 of Cn1nc(N2CCC(=O)NC2=O)c2ccc(C3CCN(CC(C)(C)Cc4cccc(S(=O)(=O)N5CCC(Nc6ncc(C(F)(F)F)cn6)CC5)c4)CC3)cc21 [Example 55] for me?
*A* 10 to 100 nM

*Q* Please do the same for Cn1nc(N2CCC(=O)NC2=O)c2ccc(C3CCN(CC4CCN(c5cc(S(=O)(=O)N6CCC(Nc7ncc(C(F)(F)F)cn7)CC6)ccc5C#N)CC4)CC3)cc21 [Example 152] as well.
*A* 1 to 10 nM

*Q* Please do the same for Cn1nc(N2CCC(=O)NC2=O)c2cc(F)c(C3CCN(Cc4cccc(S(=O)(=O)N5CCC(Nc6ncc(OC(F)F)cn6)CC5)c4)CC3)cc21 [Example 77] as well.
*A* 1 to 10 nM

*Q* Please do the same for Cn1nc(N2CCC(=O)NC2=O)c2ccc(C3CCN(CC4CCN(c5ccc(S(=O)(=O)N6CCC(Nc7ncc(C(F)(F)F)cn7)CC6)cc5)CC4)CC3)cc21 [Example 165] as well.
*A* 10 to 100 nM

*Q* Please do the same for Cn1c(=O)n(C2CCC(=O)NC2=O)c2ccc(F)c(C3CCN(CC4CCN(c5cc(S(=O)(=O)N6CCC(Nc7ncc(Cl)cn7)CC6)ccc5C#N)CC4)CC3)c21 (stereo not drawn) [Example 216] as well.
*A* 10 to 100 nM

As a next step, examine the compound that follows.
*Q* Can you look up the measured DC50 of Cn1nc(N2CCC(=O)NC2=O)c2ccc(C3CCN(CC4CCN(c5cccc(S(=O)(=O)N6CCC(Nc7ncc(Cl)cn7)CC6)c5)CC4)CC3)c(Cl)c21 [Example 71] for me?
*A* 1 to 10 nM
